// reported GI50 for each item listed
tested on: OVCAR-3 ovarian; assay: NCI tumour cell line growth inhibition, 48 h
Test readout: GI50

• Cc1cc(Cl)nc(N(CCCNc2ccnc3cc(Cl)ccc23)Cc2cccs2)n1 = 2.19 µM
• CCCCSc1nc(N)c2cn[nH]c2n1 = 17.1 µM
• CC(=O)[CH-]C(=O)c1ccccc1.CC(=O)[CH-]C(=O)c1ccccc1.CC[C@H](/C=C/C(C)[C@H]1CCC2[C@@H]3CC=C4C[C@@H]([O-])CC[C@]4(C)C3CC[C@@]21C)C(C)C.CC[C@H](/C=C/C(C)[C@H]1CCC2[C@@H]3CC=C4C[C@@H]([O-])CC[C@]4(C)C3CC[C@@]21C)C(C)C.Cl.[Ti+4] (some centres undefined) = > 25 µM
• CCC[CH2][Sn]([CH2]CCC)([O]C(=O)c1cc(F)ccc1F)[O]C(=O)c1cc(F)ccc1F = 1.33 µM
• c1cc(C2CCCCC2)ccc1-c1cnc2nonc2n1 = 0.557 µM
• O=C(N/N=C/c1cc(Cl)ccc1O)c1ccccc1Nc1ccnc(C(F)(F)F)c1 = 0.472 µM
• COc1c(B(O)O)cccc1-c1nc2ccc3[nH]ncc3c2c2c1CCCC2 = 3.43 µM
• CN(C)c1cc2c(Nc3ccc4c(cnn4Cc4ccccc4)c3)ncnc2cn1 = 6.43 µM
• COc1cc2c(NC3CCN(C(C)C)CC3)nc(C3CCCCC3)nc2cc1OCCCN1CCCC1 = 6.98 µM
